Data credit: ChEMBL document CHEMBL5126523

# Target Or System: Poly [ADP-ribose] polymerase 1 (Homo sapiens)
# Sequence (P09874 whole entry): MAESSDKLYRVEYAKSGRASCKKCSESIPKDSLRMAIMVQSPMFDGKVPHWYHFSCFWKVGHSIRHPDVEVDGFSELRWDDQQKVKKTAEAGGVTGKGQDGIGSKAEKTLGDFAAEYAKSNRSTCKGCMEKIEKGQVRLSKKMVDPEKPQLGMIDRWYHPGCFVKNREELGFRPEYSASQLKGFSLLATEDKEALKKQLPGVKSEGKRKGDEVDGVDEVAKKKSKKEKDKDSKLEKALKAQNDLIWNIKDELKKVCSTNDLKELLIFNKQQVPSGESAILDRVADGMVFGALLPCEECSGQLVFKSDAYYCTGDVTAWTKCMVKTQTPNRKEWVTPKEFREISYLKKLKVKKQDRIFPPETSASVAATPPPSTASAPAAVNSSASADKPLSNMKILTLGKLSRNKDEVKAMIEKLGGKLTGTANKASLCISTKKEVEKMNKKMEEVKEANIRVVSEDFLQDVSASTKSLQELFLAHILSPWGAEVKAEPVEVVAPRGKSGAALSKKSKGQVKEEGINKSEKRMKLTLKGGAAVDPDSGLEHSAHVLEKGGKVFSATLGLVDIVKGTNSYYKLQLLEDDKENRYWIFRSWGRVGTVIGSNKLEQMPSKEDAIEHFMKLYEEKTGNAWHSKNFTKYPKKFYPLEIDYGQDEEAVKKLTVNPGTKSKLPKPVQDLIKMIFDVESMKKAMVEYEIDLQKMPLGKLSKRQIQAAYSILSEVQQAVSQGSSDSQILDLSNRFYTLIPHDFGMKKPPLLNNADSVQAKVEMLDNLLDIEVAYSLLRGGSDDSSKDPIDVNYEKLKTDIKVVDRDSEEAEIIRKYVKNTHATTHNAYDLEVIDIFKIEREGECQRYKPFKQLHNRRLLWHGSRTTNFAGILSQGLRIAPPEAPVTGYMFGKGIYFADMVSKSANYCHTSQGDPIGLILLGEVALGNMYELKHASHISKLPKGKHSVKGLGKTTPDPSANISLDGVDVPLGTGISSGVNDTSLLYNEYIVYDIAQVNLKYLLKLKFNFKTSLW
# Assay Details: Inhibition of PARP1 (unknown origin) by ELISA
Property Measured: IC50

> print(dat)
                            compound.smiles  result.value
1  C[C@H]1CN(C(=O)c2cc(Cc3n[nH]c(=O)c4c3CCCC4)ccn2)CCN1C(=O)C(=O)C1CC1      < 200 nM
2  CC(C)(C)CC(=O)C(=O)N1CCN(C(=O)c2cc(Cc3n[nH]c(=O)c4c3CCCC4)ccc2F)CC1      < 200 nM

----------
Entries and their half-life
# Assay Details: Half life in ICR mouse at 10 mg/kg, po measured for 5 to 1440 mins
# Assay type: ADME, organism-based
# Run Conditions: in vivo, time 5-1440 min
Property Measured: half-life (h)

> print(dat)
                            compound.smiles  result.value
1  C=CCn1c(=O)c2cnc(Nc3ccc(N4C[C@H]5CN(C)C[C@H]5C4)cc3)nc2n1-c1ccc(C(C)(C)O)cn1          1.32
2  C=CCn1c(=O)c2cnc(Nc3ccc(N4C[C@H]5CN(CC6CC6)C[C@H]5C4)cc3)nc2n1-c1ccc(C(C)(C)O)cn1          0.95

----------
# Target Or System: UniProtKB P30291
# Sequence (P30291 whole entry): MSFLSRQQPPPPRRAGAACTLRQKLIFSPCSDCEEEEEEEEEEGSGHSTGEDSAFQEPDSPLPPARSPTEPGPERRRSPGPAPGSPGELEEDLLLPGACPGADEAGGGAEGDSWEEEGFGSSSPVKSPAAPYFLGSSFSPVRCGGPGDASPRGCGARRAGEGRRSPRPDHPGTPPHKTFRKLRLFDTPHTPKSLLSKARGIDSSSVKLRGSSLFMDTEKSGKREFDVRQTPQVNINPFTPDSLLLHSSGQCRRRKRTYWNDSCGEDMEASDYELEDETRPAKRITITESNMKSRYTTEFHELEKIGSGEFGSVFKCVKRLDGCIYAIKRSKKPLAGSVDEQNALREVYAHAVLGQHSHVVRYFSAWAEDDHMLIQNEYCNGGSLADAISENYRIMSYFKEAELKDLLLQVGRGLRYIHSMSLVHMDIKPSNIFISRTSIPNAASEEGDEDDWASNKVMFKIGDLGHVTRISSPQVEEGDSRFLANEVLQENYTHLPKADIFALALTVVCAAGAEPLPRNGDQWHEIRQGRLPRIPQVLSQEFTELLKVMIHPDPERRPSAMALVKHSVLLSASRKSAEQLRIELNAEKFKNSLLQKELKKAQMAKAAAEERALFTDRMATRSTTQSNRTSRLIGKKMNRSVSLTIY
# Assay Details: Inhibition of WEE1 (unknown origin) using LSNLYHQGKFLQTFCGSPLYRRR polypeptide as substrate incubated for 40 mins in presence of [gamma-33P]-ATP by scintillation counting method
pIC50: −log10 of the molar value.
Each item that follows carries a reported pIC50.
Property Measured: pIC50

> print(dat)
                                   molecule  target.or.system  result.value
1  CN1CCN(c2ccc(Nc3ncc4c(=O)n5n(c4n3)-c3cccc(n3)[C@@](C)(O)CCC/C=C\C5)cc2)CC1  UniProtKB P30291          7.54
2  CN1CC2CN(c3ccc(Nc4ncc5c(=O)n6n(c5n4)-c4cccc(n4)C(C)(O)CCC/C=C\C6)cc3)CC2C1 (configuration not stated)  UniProtKB P30291          7.24

----------
# Assay Details: AUC (0 to last) in BALB/c mouse at 0.4 mg/kg, iv by LC-MS/MS analysis
# Type: ADME, organism-based
# Parameters: time 0 - last, dose 0.4 mg/kg, route iv
# Run Conditions: in vivo
Property Measured: AUC(0-t) (µM·h)

> print(dat)
                            compound.smiles  unit.info  result.value
1  Cc1cc2ncnn2cc1Nc1ncc2c(n1)n(N1CC3CCC(C1)O3)c(=O)n2C       µM·h          1.66

----------
# Assay Details: Tmax in ICR mouse at 3 mg/kg, iv measured for 2 to 1440 mins
# Format: ADME, organism-based
# Run Conditions: in vivo, time 2-1440 min
Property Measured: Tmax (min)

> print(dat)
                            compound.smiles  property.measured  unit.info  result.value
1  C=CCn1c(=O)c2cnc(Nc3ccc(N4C[C@H]5CN(C)C[C@H]5C4)cc3)nc2n1-c1ccc(C(C)(C)O)cn1               Tmax        min           1.8
2  C=CCn1c(=O)c2cnc(Nc3ccc(N4C[C@H]5CN(CC6CC6)C[C@H]5C4)cc3)nc2n1-c1ccc(C(C)(C)O)cn1               Tmax        min           1.8

----------
# Target Or System: Serine/threonine-protein kinase Chk1 (Homo sapiens, UniProt O14757)
# Sequence (O14757 whole entry): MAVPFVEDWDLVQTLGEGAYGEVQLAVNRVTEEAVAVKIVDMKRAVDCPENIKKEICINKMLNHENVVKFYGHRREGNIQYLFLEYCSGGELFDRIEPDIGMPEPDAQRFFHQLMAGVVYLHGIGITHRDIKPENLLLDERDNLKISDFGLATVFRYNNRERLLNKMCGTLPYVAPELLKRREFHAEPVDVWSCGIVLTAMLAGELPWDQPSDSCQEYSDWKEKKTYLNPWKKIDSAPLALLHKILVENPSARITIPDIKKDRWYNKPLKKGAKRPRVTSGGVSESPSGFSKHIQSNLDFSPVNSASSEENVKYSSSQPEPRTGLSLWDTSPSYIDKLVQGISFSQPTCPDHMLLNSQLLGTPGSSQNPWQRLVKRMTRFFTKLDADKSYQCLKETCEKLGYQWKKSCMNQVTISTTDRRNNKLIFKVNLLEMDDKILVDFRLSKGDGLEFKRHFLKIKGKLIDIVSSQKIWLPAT
# Assay Details: Inhibition of N-terminal GST-tagged full-length recombinant human CHK1 expressed in baculovirus infected Sf9 insect cells using FAM-P10 peptide as substrate preincubated for 10 mins followed by substrate addition measured after 60 mins by ADP-Glo assay
pIC50: −log10 of the molar value.
Recorded pIC50 for the following compounds
Property Measured: pIC50

> print(dat)
                            compound.smiles  result.value
1  CCOC(=O)NCCCOc1cc(F)cc(OC)c1-c1cc(Nc2cnc(C#N)cn2)n[nH]1        > 7.30
2  COc1cc(F)cc(OCCCN)c1-c1cc(Nc2cnc(C#N)cn2)n[nH]1        > 9.00

----------
# Assay Details: AUC (0 to last) in overnight fasted rat at 5 mg/kg, po via gavage measured for 0.25 to 24 hrs by LC/MS/MS analysis
# Assay type: ADME, organism-based
# Design: time upper 24 hrs, dose 5 mg/kg, time lower 0.25 hrs, route po
# Run Conditions: in vivo
Property Measured: AUC(0-t) (ng·h/mL)

> print(dat)
                            compound.smiles  unit.info  result.value
1  CN1CCC2(CC1)CCN(c1ccc(Nc3ncc4cc(C5CC5)n(-c5cccc(C(C)(C)O)n5)c4n3)cc1)CC2    ng·h/mL          4070
2  CN1CCN(C2CCN(c3ccc(Nc4ncc5c(F)c(C6CC6)n(-c6cccc(C(C)(C)O)n6)c5n4)cc3F)CC2)CC1    ng·h/mL          4580

----------
# Target Or System: Serine/threonine-protein kinase ATR (Homo sapiens)
# Assay Details: Inhibition of ATR (unknown origin)-driven CHK1 phosphorylation
Property Measured: IC50

> print(dat)
                            compound.smiles  result.value
1  Nc1nn2cc(F)cnc2c1C(=O)Nc1cncc(F)c1N1CCC(C(=O)N2CCN(C3COC3)CC2)CC1          8 nM

----------
# Test system: NCI-H1299
# Assay Details: Inhibition of cell proliferation in human NCI-H1299 cells incubated for 3 days by MTT assay
# Assay type: functional, cell-based
# Run Conditions: NCI-H1299, 72 h
pIC50: −log10 of the molar value.
Property Measured: pIC50

> print(dat)
                                   compound  result.value
1  C=CCn1c(=O)c2cnc(Nc3ccc(N4CCN(C)CC4)cc3)nc2n1-c1cccc(C(C)(C)O)n1 [ADAVOSERTIB]          6.55
2  CN1CCN(c2ccc(Nc3cc4c(cn3)C(=O)N(c3ccccc3Cl)C3=NCCN34)cc2)CC1          6.81
3  C[C@@H]1CN(c2ccc(Nc3cc4c(cn3)C(=O)N(c3c(Cl)cccc3Cl)C3=NCCN34)cc2)C[C@H](C)N1C          6.98

----------
# Target Or System: Serine/threonine-protein kinase ATR (Homo sapiens, UniProt Q13535)
# Sequence (Q13535 whole entry): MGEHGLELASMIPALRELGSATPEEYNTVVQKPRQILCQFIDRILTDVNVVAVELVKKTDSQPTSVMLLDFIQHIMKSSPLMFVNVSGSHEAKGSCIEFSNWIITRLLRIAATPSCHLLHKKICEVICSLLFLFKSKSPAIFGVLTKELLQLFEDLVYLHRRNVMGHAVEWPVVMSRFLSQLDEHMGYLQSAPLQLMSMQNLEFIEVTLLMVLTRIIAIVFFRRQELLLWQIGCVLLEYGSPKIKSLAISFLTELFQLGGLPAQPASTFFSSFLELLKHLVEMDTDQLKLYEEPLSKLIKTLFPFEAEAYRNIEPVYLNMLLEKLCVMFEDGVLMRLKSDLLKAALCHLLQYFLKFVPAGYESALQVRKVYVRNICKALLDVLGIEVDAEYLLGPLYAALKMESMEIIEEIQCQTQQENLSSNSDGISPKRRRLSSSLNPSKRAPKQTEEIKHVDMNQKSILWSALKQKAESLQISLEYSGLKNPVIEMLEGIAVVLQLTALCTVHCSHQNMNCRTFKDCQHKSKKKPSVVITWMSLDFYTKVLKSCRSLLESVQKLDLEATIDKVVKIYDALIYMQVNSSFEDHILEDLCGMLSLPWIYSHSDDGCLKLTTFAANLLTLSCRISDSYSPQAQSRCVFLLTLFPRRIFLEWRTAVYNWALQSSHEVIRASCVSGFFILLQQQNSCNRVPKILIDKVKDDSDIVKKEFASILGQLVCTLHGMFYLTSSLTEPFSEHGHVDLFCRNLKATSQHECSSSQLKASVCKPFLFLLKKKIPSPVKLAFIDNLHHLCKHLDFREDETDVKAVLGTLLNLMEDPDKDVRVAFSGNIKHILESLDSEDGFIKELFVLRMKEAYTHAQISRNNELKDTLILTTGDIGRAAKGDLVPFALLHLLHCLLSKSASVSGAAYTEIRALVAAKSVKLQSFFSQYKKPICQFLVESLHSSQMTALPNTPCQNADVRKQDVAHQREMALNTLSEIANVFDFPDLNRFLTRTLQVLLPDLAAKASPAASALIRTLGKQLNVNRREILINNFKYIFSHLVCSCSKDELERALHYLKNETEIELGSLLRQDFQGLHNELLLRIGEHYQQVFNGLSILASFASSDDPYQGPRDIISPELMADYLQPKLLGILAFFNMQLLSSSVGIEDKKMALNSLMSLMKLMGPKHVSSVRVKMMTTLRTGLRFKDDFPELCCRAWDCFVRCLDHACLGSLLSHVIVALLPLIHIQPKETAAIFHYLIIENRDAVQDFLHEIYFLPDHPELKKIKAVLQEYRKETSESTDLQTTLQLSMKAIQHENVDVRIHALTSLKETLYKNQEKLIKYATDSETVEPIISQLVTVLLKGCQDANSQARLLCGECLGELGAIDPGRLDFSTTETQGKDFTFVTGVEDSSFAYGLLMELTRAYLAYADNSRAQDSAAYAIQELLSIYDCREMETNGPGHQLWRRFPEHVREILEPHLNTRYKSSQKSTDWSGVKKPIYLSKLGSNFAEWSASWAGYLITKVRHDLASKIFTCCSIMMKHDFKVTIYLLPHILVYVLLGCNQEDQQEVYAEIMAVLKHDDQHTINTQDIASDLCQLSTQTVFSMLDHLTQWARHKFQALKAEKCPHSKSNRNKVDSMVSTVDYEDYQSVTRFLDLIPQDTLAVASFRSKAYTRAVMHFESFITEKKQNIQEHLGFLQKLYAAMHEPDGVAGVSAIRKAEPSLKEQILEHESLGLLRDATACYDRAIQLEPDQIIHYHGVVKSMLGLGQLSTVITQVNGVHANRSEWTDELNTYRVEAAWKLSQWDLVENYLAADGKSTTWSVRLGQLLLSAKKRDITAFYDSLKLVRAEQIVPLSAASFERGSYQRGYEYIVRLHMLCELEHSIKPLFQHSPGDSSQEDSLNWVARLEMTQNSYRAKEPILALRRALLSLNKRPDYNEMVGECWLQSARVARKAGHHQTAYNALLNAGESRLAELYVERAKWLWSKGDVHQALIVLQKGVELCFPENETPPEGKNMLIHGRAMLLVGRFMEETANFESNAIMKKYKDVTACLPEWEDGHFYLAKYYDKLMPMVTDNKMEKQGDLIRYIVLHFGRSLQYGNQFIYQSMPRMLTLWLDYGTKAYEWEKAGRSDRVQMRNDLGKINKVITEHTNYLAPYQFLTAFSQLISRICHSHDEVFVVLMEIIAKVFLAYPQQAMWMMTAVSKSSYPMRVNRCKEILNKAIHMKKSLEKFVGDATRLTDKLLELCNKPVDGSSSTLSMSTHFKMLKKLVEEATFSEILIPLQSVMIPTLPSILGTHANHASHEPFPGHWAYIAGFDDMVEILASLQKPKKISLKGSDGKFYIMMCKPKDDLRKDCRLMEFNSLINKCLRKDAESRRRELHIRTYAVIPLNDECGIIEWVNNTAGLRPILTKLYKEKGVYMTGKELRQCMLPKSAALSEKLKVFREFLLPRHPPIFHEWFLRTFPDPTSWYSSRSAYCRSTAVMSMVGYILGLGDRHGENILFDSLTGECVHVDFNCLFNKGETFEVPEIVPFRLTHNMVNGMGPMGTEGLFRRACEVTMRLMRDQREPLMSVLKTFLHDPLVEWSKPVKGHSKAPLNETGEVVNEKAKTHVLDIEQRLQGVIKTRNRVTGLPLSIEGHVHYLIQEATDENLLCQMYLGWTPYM
# Assay Details: Inhibition of ATR (unknown origin)
Property Measured: IC50

> print(dat)
                            compound.smiles  property.measured  result.value
1  CC(C)n1c(=O)n(C)c2cnc3ccc(-c4ccc(OCCCN5CCCC5)nc4)cc3c21               IC50       > 30 µM
2  CC(C)n1c(=O)n(C)c2cnc3ccc(-c4ccc(OCCCN(C)C)nc4)cc3c21               IC50       > 30 µM

----------
# Assay Details: Half life in mouse at 0.4 mg/kg, iv
# Type: ADME, organism-based
# Run Conditions: in vivo
Property Measured: half-life

> print(dat)
                            compound.smiles  property.measured  result.value
1  COc1ccc(C2(c3cc(-c4ncnc5cc(N6CCOCC6)ccc45)c(F)cc3Cl)CC2)nn1          half-life      35.4 min

----------
# Assay Details: Tmax in ICR mouse at 10 mg/kg, po measured for 5 to 1440 mins
# Format: ADME, organism-based
# Run Conditions: in vivo, time 5-1440 min
Catalogue of Tmax values
Property Measured: Tmax (h)

> print(dat)
                            compound.smiles  result.value
1  C=CCn1c(=O)c2cnc(Nc3ccc(N4C[C@H]5CN(C)C[C@H]5C4)cc3)nc2n1-c1ccc(C(C)(C)O)cn1          1.33
2  C=CCn1c(=O)c2cnc(Nc3ccc(N4C[C@H]5CN(CC6CC6)C[C@H]5C4)cc3)nc2n1-c1ccc(C(C)(C)O)cn1          0.92
